A set of compounds tested on Mu-type opioid receptor (Rattus norvegicus, UniProt P33535), with measured pKi:
pKi: −log10 of the molar value.
recorded.endpoint: pKi

>>> result_number("COc1ccc2c3c1OC1C(O[Si](C)(C)C)C=CC4C(C2)N(C)CCC341 (configuration not stated)")
7.95
>>> result_number("CCC(=O)O[C@](Cc1ccccc1)(c1ccccc1)[C@H](C)CN(C)C")
7.46

----------
- target.of.assay: Kappa-type opioid receptor (Rattus norvegicus)
- Sequence (P34975 whole entry): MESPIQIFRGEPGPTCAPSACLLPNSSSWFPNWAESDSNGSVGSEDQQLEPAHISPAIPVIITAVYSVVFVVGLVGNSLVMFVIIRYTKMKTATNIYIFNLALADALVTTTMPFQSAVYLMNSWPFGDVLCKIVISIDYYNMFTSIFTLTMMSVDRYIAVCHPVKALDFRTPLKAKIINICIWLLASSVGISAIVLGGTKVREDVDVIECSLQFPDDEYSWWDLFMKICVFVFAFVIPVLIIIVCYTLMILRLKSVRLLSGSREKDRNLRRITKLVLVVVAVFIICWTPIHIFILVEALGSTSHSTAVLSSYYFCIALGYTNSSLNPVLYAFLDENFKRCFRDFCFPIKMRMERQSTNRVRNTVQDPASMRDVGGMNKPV
pKi: −log10 of the molar value.
recorded.endpoint: pKi

>>> result_number("CCC(=O)O[C@](Cc1ccccc1)(c1ccccc1)[C@H](C)CN(C)C")
5.91
>>> result_number("C[C@@H](NC(=O)[C@@H](N)Cc1ccc(O)cc1)C(=O)NCC(=O)N(C)[C@@H](Cc1ccccc1)C(=O)NCCO")
6.68
>>> result_number("COc1ccc2c3c1OC1C(O[Si](C)(C)C)C=CC4C(C2)N(C)CCC341 (stereo not given)")
6.30

Sourced from BindingDB's records for PubMed 7562497
